Recorded values, source paper PMC6222422.

# Tested on: BHK cells
# CONDITION_CONTEXT: Syrian hamster (Mesocricetus auratus)
ENDPOINT: CC50

molecule="CCOC(=O)NC(=S)NCCc1c[nH]c2ccccc12 [Compound 20]" endpoint=CC50 assay_value="> 100 µM"

Data request: // lookup CC50 for C=CCNC(=S)NCCc1c[nH]c2ccccc12 [Compound 18]
Data returned: > 100 µM

====

Quick reference: pEC50 of the listed items.
# System: HSV-1
# ASSAY_SUMMARY: microbe, parasite or virus in culture
# Assay type: cell-based, human herpes 1
# CONDITION_CONTEXT: Human alphaherpesvirus 1, Vero 76, read-out: HSV-1 EC50
pEC50: −log10 of the molar value.

Previously resolved entries follow.
mol=CCOC(=O)NC(=S)NCCc1c[nH]c2ccccc12 assay_value="< 4.00"
mol=S=C(NCCc1c[nH]c2ccccc12)Nc1ccccc1Cl assay_value="< 4.28"
mol=S=C(NCCc1c[nH]c2ccccc12)Nc1cccc(Cl)c1 assay_value="< 4.49"
mol=S=C(NCCc1c[nH]c2ccccc12)NC1CCCCC1 assay_value="< 4.85"

Please examine the following record next.
Data request: // lookup pEC50 for C=CCNC(=S)NCCc1c[nH]c2ccccc12
Data returned: < 4.00

====

# System: HSV-1
# ASSAY_SUMMARY: microbe, parasite or virus in culture
# Format: cell-based, human herpes 1
# CONDITION_CONTEXT: Human alphaherpesvirus 1, Vero 76, read-out: HSV-1 EC50
ENDPOINT: EC50

Previously resolved entries follow.
compound=Cc1ccc(Cl)cc1NC(=S)NCCc1c[nH]c2ccccc12 endpoint=EC50 assay_value="> 17 µM"
compound=C=C(C)CNC(=S)NCCc1c[nH]c2ccccc12 endpoint=EC50 assay_value="> 89 µM"
compound=FC(F)(F)c1cccc(NC(=S)NCCc2c[nH]c3ccccc23)c1 endpoint=EC50 assay_value="> 16 µM"
compound=CCCCc1ccc(NC(=S)NCCc2c[nH]c3ccccc23)c(C)c1 endpoint=EC50 assay_value="> 12 µM"
compound=S=C(NCCc1ccccc1)NCCc1c[nH]c2ccccc12 endpoint=EC50 assay_value="> 100 µM"
compound=COc1ccc(NC(=S)NCCc2c[nH]c3ccccc23)cc1 endpoint=EC50 assay_value="> 56 µM"

Data request: // lookup EC50 for S=C(NCCc1c[nH]c2ccccc12)Nc1ccc(Cl)cc1
Data returned: > 55 µM

Data request: // lookup EC50 for CCNC(=S)NCCc1c[nH]c2ccccc12
Data returned: > 100 µM

Data request: // lookup EC50 for Fc1ccccc1NC(=S)NCCc1c[nH]c2ccccc12
Data returned: > 73 µM

Data request: // lookup EC50 for Nc1nc2c(ncn2COCCO)c(=O)[nH]1 [Acycloguanosine, acycloguanosine, reference compound]
Data returned: 3 µM

Data request: // lookup EC50 for O=C(NC(=S)NCCc1c[nH]c2ccccc12)c1ccccc1
Data returned: > 29 µM

Data request: // lookup EC50 for Fc1ccc(NC(=S)NCCc2c[nH]c3ccccc23)cc1Cl
Data returned: > 32 µM

Data request: // lookup EC50 for S=C(NCCc1c[nH]c2ccccc12)Nc1ccc(Br)cc1
Data returned: > 13 µM

====

# Tested on: Sb-1
# ASSAY_SUMMARY: microbe, parasite or virus in culture
# Assay type: cell-based, poliovirus type-1
# CONDITION_CONTEXT: Enterovirus C, Vero 76, read-out: Sb-1 EC50
ENDPOINT: EC50

molecule="CCOC(=O)NC(=S)NCCc1c[nH]c2ccccc12 [Compound 20]" target_desc=Sb-1 assay_value="> 100 µM"

Data request: // lookup EC50 for O=C(NC(=S)NCCc1c[nH]c2ccccc12)c1ccccc1 [Compound 5]
Data returned: > 29 µM

Data request: // lookup EC50 for C=CCNC(=S)NCCc1c[nH]c2ccccc12 [Compound 18]
Data returned: > 100 µM

Data request: // lookup EC50 for S=C(NCCc1c[nH]c2ccccc12)Nc1ccc(Br)cc1 [Compound 8]
Data returned: > 13 µM

Data request: // lookup EC50 for S=C(NCCc1c[nH]c2ccccc12)Nc1ccc(I)cc1 [Compound 21]
Data returned: > 11 µM
